test system: MP41 uveal melanoma cell line (heterozygous GNA11 Q209L); test: Cell proliferation assay (resazurin cell viability), MP41 cell line; type: cell-based; conditions: MP41 (GNA11 Q209L); 96 hours of treatment; read-out: GI50 by cell line, MP41
Positions of bridges follow the written chain, without caps; N, C: chain ends. Non-standard residues stand in square brackets, D forms with d. Residues, ends and D or L forms follow the SMILES beside them. ξ: configuration not given here. ξLeu(3ξ-OH) = CC(C)C(O)C(N)C(=O)O; PhLac = O=C(O)[CH](O)Cc1ccccc1; NMeT = CN[CH](C(=O)O)[CH](C)O; NMeA = CN[CH](C)C(=O)O; NMeDha = C=C(NC)C(=O)O
parameter: GI50

For C=C1C(=O)NC(C)C(=O)N(C)C(C)C(=O)NC(C(O)C(C)C)C(=O)N(C)C(C(C)OC)C(=O)OC(C)C(NC(C)=O)C(=O)OC(Cc2ccccc2)C(=O)N1C (stereo not shown) [Compound 15] (Ac-T[PhLac][NMeDha]A[NMeA][ξLeu(3ξ-OH)][NMeT](Me); ester 1-C; configuration not given here) the molecule record lists GI50 as > 10 µM
